- MEASUREMENT TARGET: T1, cynomolgus Trop-2-His protein (cynomolgus, UniProt P09758 27-274 (human entry))
- T1 construct: also called cynmolgus Trop-His; Kactus Cat #TRP-CM121; not shown: His tag
- T1 chain: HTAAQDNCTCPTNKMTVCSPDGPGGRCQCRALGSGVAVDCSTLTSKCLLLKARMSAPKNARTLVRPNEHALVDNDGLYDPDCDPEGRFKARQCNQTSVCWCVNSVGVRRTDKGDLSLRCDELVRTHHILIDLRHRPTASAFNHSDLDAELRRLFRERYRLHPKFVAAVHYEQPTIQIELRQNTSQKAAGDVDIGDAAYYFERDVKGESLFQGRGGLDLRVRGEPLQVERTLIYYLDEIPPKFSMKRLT
- ASSAY TEXT: BLI (Gator Prime), LEM supernatant Ab on HFC probe
- Description: After three times of regeneration and neutralization of HFC probe (Gator, Cat #160003), LEM transfection supernatant samples to be tested in K buffer was diluted 1:1 in K buffer and immobilized onto HFC probe. […] The association and dissociation of human or cynomolgus Trop-2-His antigen from antibody was measured on BLI machine Gator Prime. Affinity was calculated using Gator Bio analysis software. Blank control was used for reference subtraction. […]
ASSAY METRIC: Kd (nM)
Please give a number only; it is taken to be in nM.

Recorded Kd, per entry:
{"BINDER": "9D7 (antibody, V domains shown, Rabbit-derived clone; LEM construct: VH + rabbit IgG CH1 + human IgG1 CH2-CH3) VH: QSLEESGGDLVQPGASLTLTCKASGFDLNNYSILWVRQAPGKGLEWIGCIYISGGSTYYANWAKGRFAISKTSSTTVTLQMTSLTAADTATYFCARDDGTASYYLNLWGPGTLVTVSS VL: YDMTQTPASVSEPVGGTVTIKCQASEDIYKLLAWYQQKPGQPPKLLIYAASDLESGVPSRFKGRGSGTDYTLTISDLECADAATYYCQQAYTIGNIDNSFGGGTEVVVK", "Kd (nM)": 0.117}
{"BINDER": "65D5 (antibody, V domains shown, Rabbit-derived clone; LEM construct: VH + rabbit IgG CH1 + human IgG1 CH2-CH3) VH: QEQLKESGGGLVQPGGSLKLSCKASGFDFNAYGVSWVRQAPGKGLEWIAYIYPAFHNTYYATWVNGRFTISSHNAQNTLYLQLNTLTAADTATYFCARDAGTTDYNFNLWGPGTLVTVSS VL: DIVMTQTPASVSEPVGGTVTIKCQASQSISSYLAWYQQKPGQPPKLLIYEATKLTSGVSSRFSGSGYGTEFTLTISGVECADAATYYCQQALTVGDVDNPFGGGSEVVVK", "Kd (nM)": 0.628}
{"BINDER": "66A1 (antibody, V domains shown, Rabbit-derived clone; LEM construct: VH + rabbit IgG CH1 + human IgG1 CH2-CH3) VH: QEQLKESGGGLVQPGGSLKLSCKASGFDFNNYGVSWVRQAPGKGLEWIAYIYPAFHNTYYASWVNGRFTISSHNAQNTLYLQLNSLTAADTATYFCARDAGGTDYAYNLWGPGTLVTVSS VL: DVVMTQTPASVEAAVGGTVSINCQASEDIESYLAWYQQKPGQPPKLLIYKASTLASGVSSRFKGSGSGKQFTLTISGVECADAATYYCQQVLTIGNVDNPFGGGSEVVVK", "Kd (nM)": 0.367}
{"BINDER": "62E3 (antibody, V domains shown, Rabbit-derived clone; LEM construct: VH + rabbit IgG CH1 + human IgG1 CH2-CH3) VH: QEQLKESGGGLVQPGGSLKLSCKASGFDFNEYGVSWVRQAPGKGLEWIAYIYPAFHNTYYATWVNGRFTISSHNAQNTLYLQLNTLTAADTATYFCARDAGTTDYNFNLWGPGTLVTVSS VL: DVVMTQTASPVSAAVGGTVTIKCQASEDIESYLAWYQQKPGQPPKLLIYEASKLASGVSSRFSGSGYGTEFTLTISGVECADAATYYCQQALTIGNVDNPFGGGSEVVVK", "Kd (nM)": 0.685}
{"BINDER": "10E12 (antibody, V domains shown, Rabbit-derived clone; LEM construct: VH + rabbit IgG CH1 + human IgG1 CH2-CH3) VH: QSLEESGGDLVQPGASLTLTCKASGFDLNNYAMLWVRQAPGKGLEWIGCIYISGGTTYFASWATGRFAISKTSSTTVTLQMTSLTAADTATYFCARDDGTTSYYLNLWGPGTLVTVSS VL: YDMTQTPASVSAAVGGTVTIKCQASEDIYSLLAWYQQKPGQPPKLLIYDASDLASGVPSRFKGSGSGTEYTLTISDLECDDAATYYCQQAYTIGNIDNAFGGGTEVVVK", "Kd (nM)": 0.168}
{"BINDER": "3A4 (antibody, V domains shown, Rabbit-derived clone; LEM construct: VH + rabbit IgG CH1 + human IgG1 CH2-CH3) VH: QEQLVESGGGLVQPGGSLTLSCKGSGFDFNEYGVSWVRQAPGKGLEWIAYIYPAFHNTYYATWVNGRFTISSHNAQNTLYLQLHTLTAADTATYFCARDAGTTDYNFNLWGPGTLVTVSS VL: DVVMTQTPASVSAAVGGTVSINCQASEDIENYLAWYQQKPGQPPKLLIYEASKLASGVSSRFSGSGYGTEFTLTISGVECADAATYYCQQALTIGNVDNPFGGGSEVVVK", "Kd (nM)": 1.17}
{"BINDER": "70E2 (antibody, V domains shown, Rabbit-derived clone; LEM construct: VH + rabbit IgG CH1 + human IgG1 CH2-CH3) VH: QSLEESGGGLVKPGGTLTLTCTVSGFDFSNYAMTWVRQAPGKGLEYIGFIGIRGNIYYANWAKGRFTISKTSSTTVTLQMTSLTVADTATYFCARGGLWTGNSYFDLWGPGTLVTVSS VL: YDMTQTPASVEVPVGGTVTINCQASENINRYLAWYQQKPGQPPKPLIYRAATLASGVPSRFKGSGSGTEYTLSISDLECADAATYYCQQGYGYSTVGNAFGGGTEVVVK", "Kd (nM)": 0.892}
{"BINDER": "12G6 (antibody, V domains shown, Rabbit-derived clone; LEM construct: VH + rabbit IgG CH1 + human IgG1 CH2-CH3) VH: QEQLKESGGGLVQPGGSLTLSCKASGFDFNNYGVSWVRQAPGKGLEWIGYIYPAYHNTYYATWVNGRFTISSHNAQNTLYLQLNTLTAADTATYFCARDAGNTDYNFNLWGPGTLVTVSS VL: DVVMTQTPASVEVAVGGTVTIKCQASEDIESYLAWYQQKPGQPPKLLIYEASKLASGVSSRFSGGGYGTEFTLTISGVECADAATYYCQQALTIGNVDNPFGGGSEVVVK", "Kd (nM)": 0.911}

Continue with the next binder.
// returns reported Kd for input 69H10 (antibody, V domains shown, Rabbit-derived clone; LEM construct: VH + rabbit IgG CH1 + human IgG1 CH2-CH3) VH: QEQLKESGGGLVQPGGSLKLSCKASGFDFNKYGVSWVRQAPGKGLEWIAYIYPAFHNTYYATWVNGRFTISSHNAQNTLYLQLNTLTAADTATYFCARDAGTTDYNFNLWGPGTLVTVSS VL: DVVMTQTASPVSAAVGGTVTIKCQASQSIYSYLSWYQQKPGQPPKLLIYEASKLASGVSSRFSGSGYGTEFTLTISGVECADAATYYCQQALTVGNVDNPFGGGSEVVVK
0.893
